Origin of values: patent US20090324581A1

- Target or system: human S1P1 (EDG-1) (Homo sapiens, UniProt P21453)
- Construct: expressed in transfected cells; host or cells: CHO-K1 cells stably expressing HA-Gqi5
- Sequence (P21453 whole entry): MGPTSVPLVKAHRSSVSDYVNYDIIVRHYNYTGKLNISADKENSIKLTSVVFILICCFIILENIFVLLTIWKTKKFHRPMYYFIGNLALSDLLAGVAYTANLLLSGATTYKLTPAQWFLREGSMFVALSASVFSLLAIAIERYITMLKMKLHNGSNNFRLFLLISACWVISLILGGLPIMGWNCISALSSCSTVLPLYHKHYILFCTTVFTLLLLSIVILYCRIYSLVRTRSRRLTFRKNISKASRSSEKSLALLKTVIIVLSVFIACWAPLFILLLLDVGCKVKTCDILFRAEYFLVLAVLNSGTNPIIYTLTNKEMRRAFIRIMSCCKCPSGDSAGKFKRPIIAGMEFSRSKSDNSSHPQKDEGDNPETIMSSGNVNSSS
- Method description: Intracellular calcium flux assay (agonist activity against S1P1 (EDG-1) receptor)
- Format: cell-based
- Assay context: CHO cells expressing Gqi5 and human S1P1 (EDG-1); intracellular calcium change; Table 4
- Excerpt: The HA-Gqi5 expression plasmid, which had been produced in (2) above, was integrated into CHO-K1 cells by use of a Fugene 6 reagent (product of Roche Diagnostics K.K.), and cells of interest were selected by use of hygromycin. A CHO cell expressing HA-Gqi5 was selected through western blotting employing an anti-HA antibody, and the selected cells were cloned twice. […]
Counter-ions that a name gives are not always drawn.
Metric: EC50 (nM)
Kindly provide the numeric value in nM only, without the unit symbol.

Below: 3 molecules and their reported EC50.
>>> recorded_measurement("CC(C)c1ccc(COc2ccc3c(c2)CCN3C(=O)CNCCC(=O)O)cc1OC(F)(F)F [Example 97, hydrochloride]")
4.7
>>> recorded_measurement("CN[C@H](CC(=O)O)C(=O)N1CCc2cc(OCc3ccc(C4CCCCC4)cc3C(F)(F)F)ccc21 [Example 43]")
8.7
>>> recorded_measurement("CN[C@H](CC(=O)O)C(=O)N1CCc2c1ccc(OCc1ccc(C3CCCC3)c(C(F)(F)F)c1)c2C [Example 129]")
4.5

// switching to the query molecule
Prompt line: Which EC50 is reported for this molecule? O=C(O)[C@@H]1CCCN(CC(=O)N2CCc3cc(OCc4cc(-c5ccccc5)c(C(F)(F)F)s4)ccc32)C1 [Example 119]
Response line: 6.2
